Listing of entries alongside the reported Activity.
- Organism: Rattus norvegicus
- PROTOCOL_NOTES: Positive allosteric modulation of AMPAR in Sprague-Dawley rat primary culture of cerebellar neurons assessed as potentiation of kainate-induced current at 10 uM by whole-cell patch clamp electrophysiological method relative to control
READOUT_TYPE: Activity (%)

[[record]]
molecule = "CC1Nc2c(-c3ccoc3)cc(Cl)cc2S(=O)(=O)N1 (racemic)"
val = 1600

[[record]]
molecule = "C[C@H]1Nc2c(-c3ccoc3)cc(Cl)cc2S(=O)(=O)N1"
val = 488

[[record]]
molecule = "C[C@@H]1Nc2c(-c3ccoc3)cc(Cl)cc2S(=O)(=O)N1"
val = 2590

[[record]]
molecule = "CC1Nc2ccc(Cl)cc2S(=O)(=O)N1 (centres undefined)"
val = 8

